# studySystem: CB2 receptor (Homo sapiens)
# Construct: expressed in transfected cells
# Sequence (P34972 whole entry): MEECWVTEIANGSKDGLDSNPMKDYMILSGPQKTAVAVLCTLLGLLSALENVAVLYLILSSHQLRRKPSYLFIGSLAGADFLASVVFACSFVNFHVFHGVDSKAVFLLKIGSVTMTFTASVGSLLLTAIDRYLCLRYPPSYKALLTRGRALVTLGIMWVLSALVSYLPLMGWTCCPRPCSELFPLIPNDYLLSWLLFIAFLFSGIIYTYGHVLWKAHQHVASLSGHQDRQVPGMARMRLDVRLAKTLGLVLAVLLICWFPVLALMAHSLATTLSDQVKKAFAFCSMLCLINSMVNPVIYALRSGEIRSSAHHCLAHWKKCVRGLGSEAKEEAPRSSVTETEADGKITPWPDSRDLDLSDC
# experimentNotes: Binding assay for CB2 agonists or inverse agonists (SK-N-MC membranes, [3H]-CP-55,940)
# protocolConditions: test concentration 0.2 μM (footnote 2); read-out: CB2 receptor binding percent inhibition
# Method: The human CB1 and CB2 receptors were stably expressed in SK-N-MC cells transfected with pcDNA3 CB-1 (human) or pcDNA3 CB-2 (human). […] On the day of the assay, the pellet was thawed on ice and diluted in assay buffer (50 mM Tris-HCl, 5 mM MgCl2, 2.5 mM EDTA, 0.5 mg/mL fatty acid free bovine serum aldumin, pH 7.5). […] The Unifilter plate was dried, a scintillation cocktail was added to each well and the counts representing binding were quantitated in a TopCount scintillation counter. […]
outcomeMeasure: inhibition at 0.2 µM (%)
All answers are understood in %, so give the number only.

Give CB2 receptor (Homo sapiens) inhibition at 0.2 µM for `O=C(NN1CCCCC1)c1nn(-c2cc(Cl)ccc2Cl)c2c1CCCC/C2=C\c1ccc(Cl)cc1`
30

Next compound: O=C(N[C@@H](CO)Cc1ccccc1)c1nn(-c2ccc(Cl)cc2Cl)c2c1CCCCC2Cc1cccc(Cl)c1 (stereo partly drawn)
7

Next compound: `NS(=O)(=O)c1ccc(NC(=O)c2nn(-c3ccc(Cl)cc3Cl)c3c2CCCC/C3=C\c2ccc(Cl)cc2)cc1`
7
